Test system: IGROV1 ovarian
Assay: NCI tumour cell line growth inhibition, 48 h
Measured metric: log10(TGI) (log10 of the value in µM)

{"columns": ["Compound", "Measured metric", "Numeric result"],
 "data": [
  ["Cc1ccc2c(c1)C(=O)/C(=C\\c1ccccc1)CCS2(=O)=O", "log10(TGI)", 1.46],
  ["CC1=NN(c2cccc(Cl)c2)C2(SCC(=O)N2c2nc3ccccc3s2)/C1=C\\c1ccc(Cl)cc1 (configuration not stated)", "log10(TGI)", 1.58],
  ["O=C1/C(=C\\c2ccc(Cl)cc2Cl)Sc2scc(-c3cccc([N+](=O)[O-])c3)[n+]21", "log10(TGI)", 1.35],
  ["Cc1nc2c(n1CCO)C(=O)c1ccccc1C2=O", "log10(TGI)", 1.92],
  ["O=C1C=CC2(O[C@H](c3ccccc3)[C@@H](c3ccccc3)O2)C(SC(=O)c2ccccc2)C1 (some centres not stated)", "log10(TGI)", 0.46],
  ["CC(=N/NC(=S)N1CCCCC1)/C(=N\\NC(=S)N1CCCCC1)c1ccccc1", "log10(TGI)", 0.51]
]}

====

System: ACHN renal
Test: NCI tumour cell line growth inhibition, 48 h
Measured metric: GI50

{"columns": ["Molecule", "Measured metric", "Result"],
 "data": [
  ["CC(C)(C)NC(C1=CC(C)(C)c2ccccc2C1=O)c1ccccc1 (stereo unspecified)", "GI50", "1.49 µM"],
  ["O=C(CN1CCN(c2ncnc3ccccc23)CC1)Nc1ccc(Cl)cc1C(=O)c1ccccc1Cl", "GI50", "1.67 µM"],
  ["COc1cc2c3c(n(CCCCOC(=O)C(F)(F)F)c(=O)c2cc1OC)-c1cc2c(cc1C3=O)OCO2", "GI50", "> 48.3 µM"],
  ["Cn1cc(C2=C(c3cccc4ccccc34)C(=O)NC2=O)c2ccccc21", "GI50", "7.48 µM"],
  ["COc1ccc2c(c1)C(=O)/C(=C/c1cccc(OCC(=O)Nc3nc4c(s3)CCCC4)c1)O2", "GI50", "1.47 µM"],
  ["Oc1ccc2cc(Br)ccc2c1-c1c(O)ccc2cc(Br)ccc12", "GI50", "3.02 µM"],
  ["O=c1cc(-c2cccc(C(F)(F)F)c2)[nH]c2cc3c(cc12)OCO3", "GI50", "30.5 µM"],
  ["COc1cc(-c2nc(Nc3nc4ccccc4[nH]3)nc(N)c2C#N)cc(OC)c1OC", "GI50", "14.5 µM"],
  ["CC[C@@H](C(=O)[C@@H](C)[C@@H](O)[C@H](C)[C@@H]1O[C@@H]([C@@H](CC)C(=O)O)CC[C@@H]1C)C1O[C@]2(C=CC(=O)[C@]3(CC[C@@](C)([C@H]4CC[C@](O)(CC)[C@H](C)O4)O3)O2)[C@H](C)C[C@@H]1C (stereo partly specified)", "GI50", "1.33 µM"],
  ["Cc1cc2c(cc1Cl)SC1=CC(=O)N(c3ccccc3)C1=NS2(=O)=O", "GI50", "26.6 µM"],
  ["COc1ccc(N(CC(=O)NCCC[Te]c2ccccc2)C(=O)c2ccccc2)cc1", "GI50", "3.17 µM"],
  ["CC1=C(C(=O)Nc2ccc(F)c(Cl)c2)C(c2ccccc2Cl)NC(=S)N1 (stereo unspecified)", "GI50", "17.5 µM"],
  ["CCC[CH2][Sn]1([CH2]CCC)[O]C(=O)c2cc(I)cc(I)c2[O]1", "GI50", "1.35 µM"],
  ["COc1ccc(-c2[nH]c3ccccc3c2C=C(C#N)C#N)cc1", "GI50", "2.26 µM"],
  ["Cn1cc(-c2nc(-c3c[nH]c4ncccc34)cs2)c2cc(F)ccc21", "GI50", "3.21 µM"],
  ["Cn1cncc1[C@@](N)(c1ccc(Cl)cc1)c1ccc2c(c1)c(-c1cccc(Cl)c1)cc(=O)n2C", "GI50", "3.05 µM"]
]}
